# assay-method-text: NCI Yeast Anticancer Drug Screen. Data for the cln2 rad14 strain (AID 165);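 also: 0% = growth equal to vehicle treated cultures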
# settings: S. cerevisiae cln2 rad14 strain, at 50.0 µM, stronger effect = higher value
The panel holds about 79,000 compounds, 15% with a hit somewhere; the sample as a whole holds those more often.
I'd be grateful if you could share measured growth inhibition for these entries.
Give bare numbers, in %.

Below is a list of molecules. For each, state its recorded growth inhibition.
1. CC1(O)OC(=O)c2ccc3ccccc3c21 (configuration not stated)
2. CC(C)(C)NC1=NCCNC(c2ccccc2)=C1
3. CC(C)(C)c1ccc(OC(=S)Nc2ccccc2)cc1

*A*
1. 14.9
2. -4.65
3. -17.2

* * *

# assay-method-text: NCI Yeast Anticancer Drug Screen. Data for the mlh1 rad18 strain (AID 175)
# settings: S. cerevisiae mlh1 rad18 strain growth inhibition; at 50.0 µM; stronger effect = higher value
Compounds without any hit were thinned out: in the full panel of roughly 79,000, 15% have a hit. Where a SMILES comes first, the peptide text is derived from it. [ ]: non-standard residue; d: D form. ξ: configuration not given here. ξV = CC(C)C(N)C(=O)O
I'd be grateful if you could share measured growth inhibition for these entries.
Give bare numbers, in %.

Examples from the recorded data:
| compound | growth inhibition, % |
| --- | --- |
| CCN1c2nc3ccccc3nc2N(CC)c2nc3ccccc3nc21 | 5.3 |
| N#CCCn1cnc2c(Cl)ncnc21 | -2.6 |
| ClCCCOC1CCCCO1 (configuration not stated) | 1.4 |
| Cc1cc(N)ccc1[N+](=O)[O-] | 1.75 |
| COc1cc2ccc3c4cc(OC)c(OC(C)C)cc4cnc3c2cc1OC | -4.45 |

Below is a list of compounds. For each, state its recorded growth inhibition.
1. CCNC(=O)NCCN1CCOCC1
2. N#C/C=C/c1ccc(Cl)cc1
3. NC(Cc1cnc[nH]1)C(=O)NCC(=O)O (configuration not stated)
4. NC(=O)C(CO)NC(=O)c1ccc[n+](Cc2ccccc2)c1 (configuration not stated)
5. C/C(=C\Cc1cc(O)c(C)cc1O)CC/C=C(\C)Cc1cc(C)co1

*A*
-2
-7.05
-8.95
27.9
-8.75

Below is a list of compounds. For each, state its recorded growth inhibition.
1. CCCCN(CCCC)CCC(O)c1ccc(OC)c2ccccc12 (configuration not stated)
2. O=[N+]([O-])c1cc(C(F)(F)F)ccc1F
3. O=C(O)C(Br)C(Br)C(=O)Nc1cccc(C(F)(F)F)c1 (configuration not stated)
4. O=C1OCc2cccc3c2-c2c1cccc2C(=O)OC3

*A*
49.7
-0.15
24.4
6.7

Below is a list of compounds. For each, state its recorded growth inhibition.
1. CCOC(=O)CNc1ccccc1[N+](=O)[O-]
2. C=C(c1ccccc1)c1cccc2ccccc12

*A*
[-3.75, 6.55]

Below is a list of compounds. For each, state its recorded growth inhibition.
1. Nc1cc(S(=O)(=O)O)nc(N)[n+]1[O-]
2. CN(C)C(=O)c1ccc(-c2ccccc2)cc1O
3. Cc1cc(=O)c(O)c(C)o1
4. O=C(NNC1=NCCCCN1)Nc1ccc(Cl)cc1

*A*
2.8
-4.65
-1.7
5.95

Below is a list of compounds. For each, state its recorded growth inhibition.
1. CC(C)C(N)C(=O)NCC(=O)NCC(=O)O (stereo not drawn) (H-[ξV]-Gly-Gly-OH)
2. Clc1ccc(CCn2ccc3ccccc32)c(Cl)c1
3. O=[N+]([O-])c1ccc2[nH]c(-c3ccccc3)cc2c1
4. OCCN(CCO)C(Cc1ccccc1)Cc1ccccc1

*A*
-23.4
4.35
18.9
-22.9

Below is a list of compounds. For each, state its recorded growth inhibition.
1. COC(=O)c1ccccc1/C=C1\Cc2ccc3c(c2C1=O)CCCC3
2. CCOc1ccc(N2N=C(C)CCC2=O)cc1
3. CC1=NN(c2ccccc2C)C(=O)C1

*A*
1. -25.2
2. 0.2
3. 8.1
